Here the recorded solubility at 60 min is given for each entry.
assay: Solubility in 10 mM phosphate buffer (pH 7.4); format: physicochemical; settings: pH 7.4, aqueous buffer, kinetic from dmso stock, 60 minutes at room temperature, filtered, read-out: MTS Solubility in Buffer (pH 7.4)
Form entry: value (µM) — number only.

1. CC[C@H]1OC(=O)[C@H](C)[C@@H](O)[C@H](C)[C@@H](O[C@@H]2O[C@H](C)C[C@H](N(C)C(=O)Cc3ccccc3)[C@H]2O)[C@](C)(O)C[C@@H](C)CN(C)[C@H](C)[C@@H](O)[C@]1(C)O :: 0.77
2. CC[C@H]1OC(=O)[C@H](C)[C@@H](O[C@H]2C[C@@](C)(OC)[C@@H](O)[C@H](C)O2)[C@H](C)[C@@H](O[C@@H]2O[C@H](C)C[C@H](N(C)C)[C@H]2O)[C@](C)(O)C[C@@H](C)CN(C)[C@H](C)[C@@H](O)[C@]1(C)O :: 0.26
3. CC[C@H]1OC(=O)[C@H](C)[C@@H](O)[C@H](C)[C@@H](O[C@@H]2O[C@H](C)C[C@H](N(C)C(=O)CCOc3ccccc3)[C@H]2O)[C@](C)(O)C[C@@H](C)CN(C)[C@H](C)[C@@H](O)[C@]1(C)O :: 1.42
4. CC[C@H]1OC(=O)[C@H](C)[C@@H](O)[C@H](C)[C@@H](O[C@@H]2O[C@H](C)C[C@H](N(C)C)[C@H]2OC(=O)c2ccccc2)[C@](C)(O)C[C@@H](C)CN(C)[C@H](C)[C@@H](O)[C@]1(C)O :: 3.62

Let's switch to this molecule now.
## Input Return solubility at 60 min for the following molecule: `CC[C@H]1OC(=O)[C@H](C)[C@@H](O)[C@H](C)[C@@H](O[C@@H]2O[C@H](C)C[C@H](NC)[C@H]2O)[C@](C)(O)C[C@@H](C)CN(C)[C@H](C)[C@@H](O)[C@]1(C)O`
## Output 0.49
